Data origin: patent US9232799B2

Efficacy for assorted molecules
test system: Alternaria solani; assay: In vivo preventive test on Alternaria solani (tomato); conditions: 500 ppm of active ingredient, evaluated 7 days after inoculation

Worked cases, answers included:
Molecule	System	Measurement
CC(Cc1c(F)cccc1F)N(C(=O)c1c(C(F)F)nn(C)c1Cl)C1CC1 (stereo not drawn)	Alternaria solani	95%
CN(CCc1cc(Cl)ccc1Cl)C(=O)c1c(C(F)F)nn(C)c1Cl	Alternaria solani	100%
Cn1nc(C(F)F)c(C(=O)NCCc2ccsc2Br)c1Cl	Alternaria solani	90%
Cn1nc(C(F)F)c(C(=O)NCCc2cccc(Oc3ccccc3)c2)c1Cl	Alternaria solani	95%

Would you mind telling me what Efficacy value was observed for CC(Cc1c(Cl)cccc1Cl)N(C(=O)c1c(C(F)F)nn(C)c1Cl)C1CC1 (stereo not drawn) ?
100%

Would you mind telling me what Efficacy value was observed for Cn1nc(C(F)F)c(C(=O)NCCc2ccccc2Oc2ccccc2)c1Cl ?
80%

Would you mind telling me what Efficacy value was observed for CC(Cc1ccccc1F)N(C(=O)c1c(C(F)F)nn(C)c1F)C1CC1 (stereo not drawn) ?
100%

Would you mind telling me what Efficacy value was observed for Cn1nc(C(F)F)c(C(=O)NC2CC2c2ccc(Cl)cc2)c1F (stereo not drawn) ?
95%

Would you mind telling me what Efficacy value was observed for Cn1nc(C(F)F)c(C(=O)NCC(C)(C)c2cc(Cl)ccc2Cl)c1Cl ?
100%

Would you mind telling me what Efficacy value was observed for CC(c1ccccc1Cl)C(C)N(C(=O)c1c(C(F)F)nn(C)c1Cl)C1CC1 (stereo not drawn) ?
80%

Would you mind telling me what Efficacy value was observed for CC(Cc1ccc(Cl)cc1Cl)NC(=O)c1c(C(F)F)nn(C)c1Cl (stereo not drawn) ?
95%

----------
logP for assorted molecules
assay: logP by HPLC on reversed-phase column (C 18), EEC Directive 79/831 Annex V.A8; type: physicochemical
# output: bare number, no unit

Worked cases, answers included:
Molecule	Readout Type	Measurement
Cn1nc(C(F)F)c(C(=O)NCCc2cc(Cl)cc(Cl)c2)c1F	logP	3.25
Cn1nc(C(F)F)c(C(=O)NCC(C)(C)c2ccccc2Cl)c1Cl	logP	3.48
Cn1nc(C(F)F)c(C(=O)N(C[Si](C)(C)c2ccccc2Cl)C2CC2)c1F	logP	4.13
CN(CC(=O)c1ccc(Cl)cc1)C(=O)c1c(C(F)F)nn(C)c1Cl	logP	2.68
Cn1nc(C(F)F)c(C(=O)NCC(c2cccs2)C(F)(F)F)c1Cl (stereo not drawn)	logP	2.92

Would you mind telling me what logP value was observed for Cn1nc(C(F)F)c(C(=O)NC(C)(C)C(=O)c2ccc3ccccc3c2)c1F ?
2.92

Would you mind telling me what logP value was observed for Cn1nc(C(F)F)c(C(=S)NC[Si](C)(C)c2ccccc2Cl)c1F ?
4.11

Would you mind telling me what logP value was observed for COC(c1ccc(Cl)cc1Cl)C(C)NC(=O)c1c(C(F)F)nn(C)c1F (stereo not drawn) ?
3.75

Would you mind telling me what logP value was observed for CC(CN(C(=S)c1c(C(F)F)nn(C)c1Cl)C1CC1)c1ccccc1 (stereo not drawn) ?
4.11

----------
logP for assorted compounds
test: logP by HPLC on reversed-phase column (C 18), EEC Directive 79/831 Annex V.A8; assay type: physicochemical
# output: bare number, no unit

Worked cases, answers included:
Compound	Measurement
Cc1cc(C)c(CCN(C)C(=O)c2c(C(F)F)nn(C)c2F)c(C)c1 [Example 135]	3.48
CC(Cc1ccccc1Cl)NC(=S)c1c(C(F)F)nn(C)c1Cl (stereo not drawn) [Example 38]	3.72
CC(CNC(=O)c1c(C(F)F)nn(C)c1F)c1cc(Cl)cc(Cl)c1 (stereo not drawn) [Example 111]	3.55

Would you mind telling me what logP value was observed for CC(Cc1ccccc1F)N(C(=S)c1c(C(F)F)nn(C)c1F)C1CC1 (stereo not drawn) [Example 21] ?
4.01

Would you mind telling me what logP value was observed for CN(CCc1ccccc1)C(=O)c1c(C(F)F)nn(C)c1Cl [Example 9] ?
2.60

Would you mind telling me what logP value was observed for CN(CCc1ccc(C(C)(C)C)cc1)C(=O)c1c(C(F)F)nn(C)c1Cl [Example 139] ?
3.96

Would you mind telling me what logP value was observed for C#CCOc1cc(C(OC)C(C)NC(=O)c2c(C(F)F)nn(C)c2Cl)ccc1OC (stereo not drawn) [Example 159] ?
2.76

Would you mind telling me what logP value was observed for COC(CNC(=S)c1c(C(F)F)nn(C)c1F)c1cc(Cl)cc(Cl)c1 (stereo not drawn) [Example 110] ?
4.19

Would you mind telling me what logP value was observed for CN(CCc1ccc(F)cc1)C(=O)c1c(C(F)F)nn(C)c1F [Example 22] ?
2.50
